# TEST_SYSTEM: HLA-A*68:01
# PROTOCOL_DETAILS: IEDB peptide-MHC binding, purified MHC/competitive/radioactivity; filed as Kd, often an IC50 or EC50 that approximates it; bounds were set here for any values at or beyond the usual limits of such assays
# REPORTED_CONDITIONS: source organism: Vaccinia virus WR
pKd: −log10 of the molar value.
Criterion: pKd meeting or surpassing 7. Met: yes (1). Not met: no (0).

RECORD_SEQUENCE: ATMLEYVRY
CLASSIFICATION: no (0)
//
RECORD_SEQUENCE: GSTAEQLSK
CLASSIFICATION: no (0)
//
RECORD_SEQUENCE: PISELSRLRY
CLASSIFICATION: no (0)
//
RECORD_SEQUENCE: NFFTELENKK
CLASSIFICATION: no (0)
//
RECORD_SEQUENCE: HINALEYIIK
CLASSIFICATION: yes (1)

Dear colleague, could you confirm whether SLSVETITEK has pKd at or above 7?
no (0)

Dear colleague, could you confirm whether AALFMYYAKR has pKd at or above 7?
yes (1)

Dear colleague, could you confirm whether NTLSERISSK has pKd at or above 7?
yes (1)

Dear colleague, could you confirm whether RIQRRDDVDR has pKd at or above 7?
no (0)

Dear colleague, could you confirm whether WLSSKGLACY has pKd at or above 7?
no (0)

Dear colleague, could you confirm whether SVIRLLIWAY has pKd at or above 7?
no (0)

Dear colleague, could you confirm whether EMVDELVTRK has pKd at or above 7?
no (0)

Dear colleague, could you confirm whether VSYEVFDDY has pKd at or above 7?
no (0)

Dear colleague, could you confirm whether IVLFQRFLR has pKd at or above 7?
yes (1)

Dear colleague, could you confirm whether GILKKLSSIK has pKd at or above 7?
no (0)

Dear colleague, could you confirm whether KSKNINIEVK has pKd at or above 7?
no (0)

Dear colleague, could you confirm whether LSRLRYNLCK has pKd at or above 7?
no (0)

Dear colleague, could you confirm whether NTPLHIVCSK has pKd at or above 7?
yes (1)
